- target_under_test: His-BIR2-3 (125-356, C202A/C213G, XIAP) (Homo sapiens, UniProt P98170, C202A/C213G)
- Construct: additions of His-BIR2-3 (125-356, C202A/C213G, XIAP), fluorescein labeled dimeric SMAC peptide
- Sequence (P98170 125-356 C202A/C213G): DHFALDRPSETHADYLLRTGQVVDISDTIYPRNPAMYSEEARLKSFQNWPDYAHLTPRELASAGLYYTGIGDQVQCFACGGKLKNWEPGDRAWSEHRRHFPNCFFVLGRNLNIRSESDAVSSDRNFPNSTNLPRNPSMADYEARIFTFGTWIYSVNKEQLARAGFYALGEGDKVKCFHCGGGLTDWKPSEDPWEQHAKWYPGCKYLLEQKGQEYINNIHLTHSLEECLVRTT
- assay_overview: XIAP-BIR2-3 Dimeric SMAC Peptide Homogeneous Time Resolved Fluorescence (HTRF) Assay
- condition_details: fluorescein labeled dimeric SMAC peptide
assay_endpoint: pIC50
Friendly reminder that pIC50 comes from taking -log10 of the concentration in mol/L.

compound	assay_result
CN[C@@H](C)C(=O)N[C@H](C(=O)N1C[C@@H]2C[C@H]1C(=O)N[C@@H](Cc1ccc3ccccc3c1)C(=O)N[C@H](C(=O)O)Cc1ccc(cc1)OC/C=C/CO[C@H]1C[C@@H](C(=O)N[C@@H](Cc3ccc(-c4ccccc4)cc3)C(=O)N[C@H](C(=O)O)Cc3ccc(cc3)C(=O)N2)N(C(=O)[C@@H](NC(=O)[C@H](C)NC)C(C)(C)C)C1)C(C)(C)C	8.59

Next up:
// query pIC50 value for entry CN[C@@H](C)C(=O)N[C@H](C(=O)N1C[C@@H]2C[C@H]1C(=O)N[C@@H](Cc1ccc3ccccc3c1)C(=O)N[C@H](C(=O)O)Cc1ccc(cc1)OCc1cn(nn1)[C@H]1C[C@@H](C(=O)N[C@@H](Cc3ccc4ccccc4c3)C(=O)N[C@H](C(=O)NS(=O)(=O)C3CC3)Cc3ccc(cc3)OCCCCO2)N(C(=O)[C@@H](NC(=O)[C@H](C)NC)C(C)(C)C)C1)C(C)(C)C [Example 123] 8.27

Attribution: patent US20140135270A1
